subject of test: Testis-specific serine/threonine-protein kinase 2 (Homo sapiens) (UniProt Q96PF2)
Sequence (whole entry): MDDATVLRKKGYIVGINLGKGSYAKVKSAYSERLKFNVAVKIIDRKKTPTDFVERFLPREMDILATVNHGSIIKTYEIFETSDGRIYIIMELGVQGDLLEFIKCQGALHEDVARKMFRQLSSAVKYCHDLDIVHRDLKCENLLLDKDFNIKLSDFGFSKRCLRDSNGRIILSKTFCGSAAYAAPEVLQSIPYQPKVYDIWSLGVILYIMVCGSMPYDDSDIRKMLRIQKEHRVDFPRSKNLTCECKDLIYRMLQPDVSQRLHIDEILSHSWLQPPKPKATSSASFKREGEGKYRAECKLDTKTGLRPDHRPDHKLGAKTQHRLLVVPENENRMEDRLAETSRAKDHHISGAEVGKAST
cond: at 10 µM
Measured residual activity by item

>  <smiles text>
c1ccc2c(-c3ccncc3)c[nH]c2c1

>  <residual activity>
95%

$$$$
>  <smiles text>
Oc1ccc(Nc2nc(-c3ccc(Cl)cc3)cs2)cc1

>  <residual activity>
105%

$$$$
>  <smiles text>
CC(C)n1cnc2/c(=N/c3cccc(Cl)c3)nc(NCCO)[nH]c21

>  <residual activity>
81%

$$$$
>  <smiles text>
CNc1cc2c(Nc3cccc(Br)c3)ncnc2cn1

>  <residual activity>
103%

$$$$
>  <smiles text>
O=C1c2ccccc2-[n+]2ccc3c([nH]c4ccccc43)c21

>  <residual activity>
86%

$$$$
>  <smiles text>
CO[C@@H]1[C@H](N(C)C(=O)c2ccccc2)C[C@H]2O[C@]1(C)n1c3ccccc3c3c4c(c5c6ccccc6n2c5c31)C(=O)NC4

>  <residual activity>
30%

$$$$
>  <smiles text>
Oc1c2ccccc2c2c3c(cccc13)N=N2

>  <residual activity>
86%

$$$$
>  <smiles text>
NC(=O)c1ccc2[nH]c(-c3ccc(Oc4ccc(Cl)cc4)cc3)nc2c1

>  <residual activity>
95%

$$$$
>  <smiles text>
COc1ccc(OC)c2c(=S)c3ccccc3[nH]c12

>  <residual activity>
90%

$$$$
>  <smiles text>
Cn1nc2c3c(cccc31)C(=O)c1ccccc1-2

>  <residual activity>
76%

$$$$
>  <smiles text>
c1ccc(-c2n[nH]cc2-c2ccnc3ccccc23)nc1

>  <residual activity>
93%

$$$$

====

The following compounds are listed with their measured residual activity values.
subject of test: Cyclin-dependent kinase 5/CDK5 activator 1 (Homo sapiens) (UniProt Q00535+Q15078)
Sequence (Q00535 whole entry): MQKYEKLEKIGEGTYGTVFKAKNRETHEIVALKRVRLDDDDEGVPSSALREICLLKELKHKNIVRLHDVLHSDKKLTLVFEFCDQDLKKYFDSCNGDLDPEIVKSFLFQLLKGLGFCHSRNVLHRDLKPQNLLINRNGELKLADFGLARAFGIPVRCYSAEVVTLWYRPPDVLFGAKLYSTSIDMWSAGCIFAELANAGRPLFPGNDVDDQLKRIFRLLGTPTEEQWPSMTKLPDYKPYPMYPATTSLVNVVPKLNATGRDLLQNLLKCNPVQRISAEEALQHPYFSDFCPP
Sequence (Q15078 99-307 partner limits assumed): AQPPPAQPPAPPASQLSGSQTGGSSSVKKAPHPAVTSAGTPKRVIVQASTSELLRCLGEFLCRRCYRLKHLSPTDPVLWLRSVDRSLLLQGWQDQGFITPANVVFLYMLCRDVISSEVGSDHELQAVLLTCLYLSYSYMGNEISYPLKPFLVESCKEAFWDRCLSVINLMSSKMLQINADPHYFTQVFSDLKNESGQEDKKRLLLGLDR
cond: at 1 µM

>  <smiles text>
CC(=O)c1ccc(N2CCOCC2)cc1O

>  <residual activity [%]>
95

$$$$
>  <smiles text>
COc1ccc(OC)c2c(=S)c3ccccc3[nH]c12

>  <residual activity [%]>
105

$$$$
>  <smiles text>
COc1ccc(C(=O)Nc2sc3c(c2C(N)=O)CCCC3)cc1OC

>  <residual activity [%]>
85

$$$$
>  <smiles text>
Oc1ccc(Nc2nc(-c3ccc(Cl)cc3)cs2)cc1

>  <residual activity [%]>
120

$$$$
>  <smiles text>
C[C@@H](N)[C@H]1CC[C@H](C(=O)Nc2ccncc2)CC1

>  <residual activity [%]>
117

$$$$
>  <smiles text>
Ic1cccc(CSc2nnc(-c3ccncc3)o2)c1

>  <residual activity [%]>
8

$$$$
>  <smiles text>
Nc1n[nH]c2nnc(-c3c(-c4ccccc4)nn4ccccc34)cc12

>  <residual activity [%]>
112

$$$$
>  <smiles text>
Cc1ccc(NC2=CC(=O)c3sc(C)nc3C2=O)cc1

>  <residual activity [%]>
107

$$$$
>  <smiles text>
CCOc1cc2ncnc(Nc3cccc(Br)c3)c2cc1OCC

>  <residual activity [%]>
95

$$$$
>  <smiles text>
COc1ccc(CNc2nc(N(CCO)CCO)nc3c2ncn3C(C)C)cc1

>  <residual activity [%]>
18

$$$$
>  <smiles text>
Nc1ccc2ncnc(NCCc3ccc(Oc4ccccc4)cc3)c2c1

>  <residual activity [%]>
123

$$$$
>  <smiles text>
O=C1Nc2cc(Br)ccc2/C1=C1/Nc2ccccc2/C1=N\O

>  <residual activity [%]>
2

$$$$
>  <smiles text>
CC(C)n1cnc2c(NCc3ccccc3)nc(NCCCO)nc21

>  <residual activity [%]>
53

$$$$
>  <smiles text>
Cc1cncc2cccc(S(=O)(=O)N3CCCN(C(=O)CN)C[C@H]3C)c12

>  <residual activity [%]>
80

$$$$
>  <smiles text>
COc1cccc(-c2cc(=O)c3ccccc3o2)c1N

>  <residual activity [%]>
112

$$$$
>  <smiles text>
O=C1NC(=O)c2cc(Nc3ccc(F)cc3)c(Nc3ccc(F)cc3)cc21

>  <residual activity [%]>
81

$$$$
>  <smiles text>
O=[N+]([O-])c1ccc(-c2nc(-c3ccc(F)cc3)c(-c3ccncc3)[nH]2)cc1

>  <residual activity [%]>
108

$$$$
>  <smiles text>
Cc1cccc(-c2[nH]c(C(C)(C)C)nc2-c2ccc3c(c2)OCO3)n1

>  <residual activity [%]>
92

$$$$
>  <smiles text>
O=C(Nc1cccc(Nc2nccc(Nc3cccc(C(F)(F)F)c3)n2)c1)C1CC1

>  <residual activity [%]>
107

$$$$
>  <smiles text>
Oc1n[nH]c2nnc(-c3c(-c4ccccc4)nn4ccccc34)cc12

>  <residual activity [%]>
105

$$$$
